system name: Nuclear receptor subfamily 1 group I member 3 (Homo sapiens) (UniProt Q14994)
Sequence (Q14994 whole entry, looked up): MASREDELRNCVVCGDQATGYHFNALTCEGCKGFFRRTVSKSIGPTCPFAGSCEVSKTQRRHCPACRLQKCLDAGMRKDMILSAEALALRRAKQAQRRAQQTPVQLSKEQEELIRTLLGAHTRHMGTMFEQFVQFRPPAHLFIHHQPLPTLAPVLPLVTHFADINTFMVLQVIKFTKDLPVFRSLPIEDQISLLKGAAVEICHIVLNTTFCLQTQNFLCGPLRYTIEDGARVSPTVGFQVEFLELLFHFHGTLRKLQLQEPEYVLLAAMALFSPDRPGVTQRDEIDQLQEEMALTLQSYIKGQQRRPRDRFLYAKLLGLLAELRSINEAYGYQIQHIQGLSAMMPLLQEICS
assay method text: qHTS assay to identify small molecule antagonists of the constitutive androstane receptor (CAR) signaling pathway (AID 1224838);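 note: HepG2 cells stably expressing hCAR with CYP2B6 luciferase reporter stimulated by CITCO; nearly all actives have a fitted effect of over 40% in size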
conditions: HepG2-CYP2B6-hCAR luciferase, CITCO-stimulated, 24 h; series mostly up to 92.4 µM
Results filed as inconclusive are left out. The source made the active and inactive calls. Calls come from the whole dose curve; as a rule, active = well fitted inhibition curve with a large enough effect in the repeat runs; inconclusive = weak or mixed curves, or effect the other way; inactive = no such curve, though single readings can be large or run the other way.
Please answer using one outcome listed in active, inactive

[[record]]
compound = "CC(=O)c1cc2ccccc2s1"
system_name = "Nuclear receptor subfamily 1 group I member 3 (Homo sapiens) (UniProt Q14994)"
class = "inactive"

[[record]]
compound = "CC(C)C=O"
system_name = "Nuclear receptor subfamily 1 group I member 3 (Homo sapiens) (UniProt Q14994)"
class = "inactive"


input: Please share the test call associated with CCOc1cccc(-n2cc(C(=O)N3CCN(c4cc(C(=O)O)c5ccccc5c4)CC3)nc2-c2ccc(C)cc2)c1 .
output: inactive

input: Tell me the recorded outcome of this test for C=CCc1ccccc1OCC(O)CNC(C)C (stereo unspecified) .
output: inactive

input: Would you mind telling me which call this test gave Cc1c(C)c2c(c(C)c1OC(=O)CCC(=O)OCCO)CC[C@@](C)(CCC[C@H](C)CCC[C@H](C)CCCC(C)C)O2 ?
output: inactive

input: How was c1csc(SSc2cccs2)c1 classified in this test?
output: active
